conditions: in n-propanol, 323.15 K
READOUT_TYPE: solubility (mole fraction)
The answer should be a number; do not append a unit.

Input line: # return recorded solubility (mole fraction) for input O=C(c1ccc(F)cc1)c1ccc(F)cc1
Output line: 0.0378

---

conditions: in acetone, 313.15 K
READOUT_TYPE: solubility (mole fraction)
// no unit string in output, number only

Input line: Answer with the recorded solubility (mole fraction) for the compound listed here: O=C(c1ccc(F)cc1)c1ccc(F)cc1
Output line: 0.172

---

details: in ethyl acetate, 333.15 K
READOUT_TYPE: solubility (mole fraction)
Would you mind answering with just the numeric figure?

Input line: Name the recorded solubility (mole fraction) of the compound listed here: O=C(c1ccc(F)cc1)c1ccc(F)cc1
Output line: 0.299

---

details: in methyl acetate, 298.15 K
READOUT_TYPE: solubility (mole fraction)
Form field (numeric): enter value without unit.

Input line: Tell me solubility (mole fraction) reported for O=C(c1ccc(F)cc1)c1ccc(F)cc1
Output line: 0.112

---

settings: in methanol, 328.15 K
READOUT_TYPE: solubility (mole fraction)

Input line: Input O=C(c1ccc(F)cc1)c1ccc(F)cc1 , output reported solubility (mole fraction).
Output line: 0.0245

---

conditions: in n-propanol, 298.15 K
READOUT_TYPE: solubility (mole fraction)
Simply state the number, no unit and no words.

Input line: Specify reported solubility (mole fraction) for the compound shown: O=C(c1ccc(F)cc1)c1ccc(F)cc1
Output line: 0.0127

---

conditions: in isopropanol, 333.15 K
READOUT_TYPE: solubility (mole fraction)
// no unit, no text: just the number

Input line: Give solubility (mole fraction) for O=C(c1ccc(F)cc1)c1ccc(F)cc1
Output line: 0.056

---

conditions: in n-butanol, 313.15 K
READOUT_TYPE: solubility (mole fraction)
Hey, just send me the number, nothing else.

Input line: Using known records, supply solubility (mole fraction) for O=C(c1ccc(F)cc1)c1ccc(F)cc1
Output line: 0.0282

---

conditions: in ethanol, 323.15 K
READOUT_TYPE: solubility (mole fraction)
Reply briefly: the number, and no unit.

Input line: Entry O=C(c1ccc(F)cc1)c1ccc(F)cc1 needs its solubility (mole fraction) filled in; supply it.
Output line: 0.0297

---

conditions: in isopropanol, 298.15 K
READOUT_TYPE: solubility (mole fraction)
The answer should be written as a number, with no unit following it.

Input line: Read off the recorded solubility (mole fraction) for O=C(c1ccc(F)cc1)c1ccc(F)cc1
Output line: 0.0101

---

conditions: in methyl acetate, 303.15 K
READOUT_TYPE: solubility (mole fraction)

Input line: Check the records and state solubility (mole fraction) for O=C(c1ccc(F)cc1)c1ccc(F)cc1
Output line: 0.131

---

conditions: in acetonitrile, 303.15 K
READOUT_TYPE: solubility (mole fraction)
Give your answer as a number; write no unit.

Input line: Return solubility (mole fraction) (reported value) for this molecule: O=C(c1ccc(F)cc1)c1ccc(F)cc1
Output line: 0.0491

---

details: in n-butanol, 293.15 K
READOUT_TYPE: solubility (mole fraction)
The answer should be a number; do not append a unit.

Input line: Determine from records and report solubility (mole fraction) for O=C(c1ccc(F)cc1)c1ccc(F)cc1
Output line: 0.011

---

settings: in ethyl acetate, 323.15 K
READOUT_TYPE: solubility (mole fraction)
Just the number, please, no unit attached.

Input line: For the compound O=C(c1ccc(F)cc1)c1ccc(F)cc1 , report solubility (mole fraction).
Output line: 0.231

---

details: in acetone, 318.15 K
READOUT_TYPE: solubility (mole fraction)

Input line: Entry O=C(c1ccc(F)cc1)c1ccc(F)cc1 needs its solubility (mole fraction) filled in; supply it.
Output line: 0.199

---

conditions: in methyl acetate, 293.15 K
READOUT_TYPE: solubility (mole fraction)
I only need the number, thanks.

Input line: Complete the entry with solubility (mole fraction) for O=C(c1ccc(F)cc1)c1ccc(F)cc1
Output line: 0.0956

---

settings: in n-butanol, 318.15 K
READOUT_TYPE: solubility (mole fraction)

Input line: Give the reported value of solubility (mole fraction) for this record: O=C(c1ccc(F)cc1)c1ccc(F)cc1
Output line: 0.0354

---

details: in isopropanol, 303.15 K
READOUT_TYPE: solubility (mole fraction)
Give the figure by itself; no unit, no explanation.

Input line: Look up and report measured solubility (mole fraction) for this entry: O=C(c1ccc(F)cc1)c1ccc(F)cc1
Output line: 0.0131

---

details: in methanol, 308.15 K
READOUT_TYPE: solubility (mole fraction)
Enter the number alone.

Input line: Please report solubility (mole fraction) for the following molecule: O=C(c1ccc(F)cc1)c1ccc(F)cc1
Output line: 0.0114

---

settings: in n-butanol, 303.15 K
READOUT_TYPE: solubility (mole fraction)
Field format: numeric only.

Input line: Supply solubility (mole fraction) value. Item: O=C(c1ccc(F)cc1)c1ccc(F)cc1
Output line: 0.0177

---

settings: in acetone, 308.15 K
READOUT_TYPE: solubility (mole fraction)

Input line: Please give measured solubility (mole fraction) of the following entry: O=C(c1ccc(F)cc1)c1ccc(F)cc1
Output line: 0.147

---

details: in ethanol, 318.15 K
READOUT_TYPE: solubility (mole fraction)
Answer with the value's number alone.

Input line: Consider the compound O=C(c1ccc(F)cc1)c1ccc(F)cc1 . State its measured solubility (mole fraction).
Output line: 0.0242

---

conditions: in acetone, 293.15 K
READOUT_TYPE: solubility (mole fraction)
Answer as a number with no unit attached.

Input line: Identify measured solubility (mole fraction) corresponding to O=C(c1ccc(F)cc1)c1ccc(F)cc1
Output line: 0.0915

---

conditions: in methanol, 318.15 K
READOUT_TYPE: solubility (mole fraction)
The response must contain the number and no unit.

Input line: Indicate the recorded solubility (mole fraction) value for this compound: O=C(c1ccc(F)cc1)c1ccc(F)cc1
Output line: 0.0168

---

conditions: in isobutanol, 318.15 K
READOUT_TYPE: solubility (mole fraction)
# print the numeric value only

Input line: Look up and report measured solubility (mole fraction) for this entry: O=C(c1ccc(F)cc1)c1ccc(F)cc1
Output line: 0.0322

---

settings: in ethanol, 328.15 K
READOUT_TYPE: solubility (mole fraction)
Just the number, please.

Input line: Check the records and state solubility (mole fraction) for O=C(c1ccc(F)cc1)c1ccc(F)cc1
Output line: 0.0364

---

conditions: in isobutanol, 308.15 K
READOUT_TYPE: solubility (mole fraction)
Just the number, please.

Input line: Please report solubility (mole fraction) for the following compound: O=C(c1ccc(F)cc1)c1ccc(F)cc1
Output line: 0.02

---

conditions: in n-butanol, 298.15 K
READOUT_TYPE: solubility (mole fraction)

Input line: // Input: O=C(c1ccc(F)cc1)c1ccc(F)cc1 . Output its solubility (mole fraction) only.
Output line: 0.014

---

conditions: in acetonitrile, 328.15 K
READOUT_TYPE: solubility (mole fraction)
// keep it numeric: no unit symbol after the value

Input line: Determine from records and report solubility (mole fraction) for O=C(c1ccc(F)cc1)c1ccc(F)cc1
Output line: 0.158

---

settings: in n-butanol, 333.15 K
READOUT_TYPE: solubility (mole fraction)
Would you mind answering with just the numeric figure?

Input line: Complete the entry with solubility (mole fraction) for O=C(c1ccc(F)cc1)c1ccc(F)cc1
Output line: 0.0691

---

settings: in acetone, 303.15 K
READOUT_TYPE: solubility (mole fraction)
Write the number on its own, no unit after it.

Input line: Give a short answer stating reported solubility (mole fraction) for O=C(c1ccc(F)cc1)c1ccc(F)cc1 .
Output line: 0.126

---

conditions: in acetone, 328.15 K
READOUT_TYPE: solubility (mole fraction)
When you answer, write just the number.

Input line: Retrieve solubility (mole fraction) measured for O=C(c1ccc(F)cc1)c1ccc(F)cc1 and print it.
Output line: 0.266

---

settings: in ethanol, 313.15 K
READOUT_TYPE: solubility (mole fraction)
# answer = number (no unit)

Input line: In one line, give reported solubility (mole fraction) of the entry O=C(c1ccc(F)cc1)c1ccc(F)cc1 .
Output line: 0.0197

---

settings: in n-propanol, 303.15 K
READOUT_TYPE: solubility (mole fraction)
The response must contain the number and no unit.

Input line: Report solubility (mole fraction), nothing else, for this compound: O=C(c1ccc(F)cc1)c1ccc(F)cc1
Output line: 0.0159

---

conditions: in n-propanol, 308.15 K
READOUT_TYPE: solubility (mole fraction)
Just the number, please, no unit attached.

Input line: Quote solubility (mole fraction) reported for O=C(c1ccc(F)cc1)c1ccc(F)cc1 please.
Output line: 0.0197

---

details: in methanol, 323.15 K
READOUT_TYPE: solubility (mole fraction)
Please state the value as a number alone, without comment.

Input line: Item O=C(c1ccc(F)cc1)c1ccc(F)cc1 : provide solubility (mole fraction)
Output line: 0.0204
